Biological target: T1, human serum albumin (human, UniProt P02768 25-609)
T1 construct: mature; Bought purified serum albumin; also called HSA; Human albumin
Assay: SPR, Fab captured; albumin taken as HSA;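 further: antibody captured on the sensor surface, albumin injected for a 3 min association phase, then dissociation followed, with signals corrected against a blank flow cell and buffer-only injections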
# Lookup of reported koff keyed by entry
// units = s⁻¹; emit number, no label

Here is how some binders turned out for koff.
CA645 gL20gH5 Fab (Fab, V domains shown, Fab: human gamma1 CH1, human kappa (Km3); Kabat numbering) VH: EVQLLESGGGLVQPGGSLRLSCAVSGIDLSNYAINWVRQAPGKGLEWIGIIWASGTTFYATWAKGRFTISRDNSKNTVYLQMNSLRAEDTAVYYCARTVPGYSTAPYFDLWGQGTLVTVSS VL: DIQMTQSPSSVSASVGDRVTITCQSSPSVWQNFLSWYQQKPGKAPKLLIYEASKLTSGVPSRFSGSGSGTDFTLTISSLQPEDFATYYCGGGYSSISDTTFGGGTKVEIK : 0.000794
CA645 gL26gH5 Fab (Fab, V domains shown, Fab: human gamma1 CH1, human kappa (Km3); Kabat numbering) VH: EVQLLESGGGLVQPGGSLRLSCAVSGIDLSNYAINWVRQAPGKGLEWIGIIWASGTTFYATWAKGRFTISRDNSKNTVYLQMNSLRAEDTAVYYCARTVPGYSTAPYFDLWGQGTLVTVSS VL: DIQMTQSPSSVSASVGDRVTITCQSSPSVWYNFLSWYQQKPGKAPKLLIYEASKLTSGVPSRFSGSGSGTDFTLTISSLQPEDFATYYCGGGYSSISDTTFGGGTKVEIK : 0.000248

stdin: Which koff value is on record for CA645 gL17gH5 Fab (Fab, V domains shown, Fab: human gamma1 CH1, human kappa (Km3); Kabat numbering) VH: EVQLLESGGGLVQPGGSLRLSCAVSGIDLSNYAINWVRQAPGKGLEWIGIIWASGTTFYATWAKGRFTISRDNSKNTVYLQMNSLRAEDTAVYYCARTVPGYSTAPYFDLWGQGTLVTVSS VL: DIQMTQSPSSVSASVGDRVTITCQSSPSVWNNFLSWYQQKPGKAPKLLIYEASKLTSGVPSRFSGSGSGTDFTLTISSLQPEDFATYYCGGGYSSISDTTFGGGTKVEIK ?
stdout: 0.000323
